Each entry below carries its reported % inhibition at 100 µM.
Biological target: T1, Chymase, from human skin (human, UniProt P23946 22-247)
T1 sequence (looked up): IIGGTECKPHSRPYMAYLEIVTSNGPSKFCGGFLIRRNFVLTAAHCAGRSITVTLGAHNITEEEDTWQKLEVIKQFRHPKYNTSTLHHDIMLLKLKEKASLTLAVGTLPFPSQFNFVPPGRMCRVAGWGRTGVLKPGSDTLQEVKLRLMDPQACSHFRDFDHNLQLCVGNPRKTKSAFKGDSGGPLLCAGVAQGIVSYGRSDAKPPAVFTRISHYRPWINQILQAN
Test: cell-based or functional assay
Give the number; % is assumed, so skip it.

{"binder": "FCTKSEPPICT (HELM PEPTIDE1{F.C.T.K.S.E.P.P.I.C.T.[dP].P}$PEPTIDE1,PEPTIDE1,2:R3-10:R3|PEPTIDE1,PEPTIDE1,1:R1-13:R2$$$V2.0; SMILES CC[C@H](C)[C@@H]1NC(=O)[C@@H]2CCCN2C(=O)[C@@H]2CCCN2C(=O)[C@H](CCC(=O)O)NC(=O)[C@H](CO)NC(=O)[C@H](CCCCN)NC(=O)[C@H]([C@@H](C)O)NC(=O)[C@@H]2CSSC[C@H](NC1=O)C(=O)N[C@@H]([C@@H](C)O)C(=O)N1CCC[C@@H]1C(=O)N1CCC[C@H]1C(=O)N[C@@H](Cc1ccccc1)C(=O)N2) [Example 1]", "% inhibition at 100 µM [%]": 0}

From here, focus on the item given below.
Form field % inhibition at 100 µM, entry FCTKSEPPICS (HELM PEPTIDE1{F.C.T.K.S.E.P.P.I.C.S.[dP].P}$PEPTIDE1,PEPTIDE1,2:R3-10:R3|PEPTIDE1,PEPTIDE1,1:R1-13:R2$$$V2.0; SMILES CC[C@H](C)[C@@H]1NC(=O)[C@@H]2CCCN2C(=O)[C@@H]2CCCN2C(=O)[C@H](CCC(=O)O)NC(=O)[C@H](CO)NC(=O)[C@H](CCCCN)NC(=O)[C@H]([C@@H](C)O)NC(=O)[C@@H]2CSSC[C@H](NC1=O)C(=O)N[C@@H](CO)C(=O)N1CCC[C@@H]1C(=O)N1CCC[C@H]1C(=O)N[C@@H](Cc1ccccc1)C(=O)N2) [Example 21] : 5
